koff overview
Target: T1, CD3-specific binding domain (SEQ ID NO: 3) (biotinylated when used as immobilized SPR ligand (site not stated))
T1 construct: also called α-CD3 DARPin
T1 chain: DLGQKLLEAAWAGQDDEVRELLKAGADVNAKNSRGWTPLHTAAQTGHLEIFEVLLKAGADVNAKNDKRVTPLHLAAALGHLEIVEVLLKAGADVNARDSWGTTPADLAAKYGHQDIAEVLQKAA
Test: SPR (ProteOn), biotinylated CD3-specific binding domain immobilized, multi-trace 50-0.195 nM, 25 C
Entry rule: numbers only, all in s⁻¹.

Consider the following illustrative entries.
2-in-1 DARPin 12 (SEQ ID NO: 7) (designed binder, N3C mono-domain; purified by its His-tag) DLDKKLLEAARAGQDDEVRILLKAGADVNAKDSTGWTPLHLAAPWGHPEIVEVLLKAGADVNAKDVYGWTPLHLAAAAGHLEIVEVLLKAGADVNAKDWLGWTPLHLAASHGHLEIVEVLLKAGADVNAQDKSGKTPADLAARAGHQDIAEVLQKAA ... 0.00081
2-in-1 DARPin 18 (SEQ ID NO: 11) (designed binder, N4C mono-domain; purified by its His-tag) DLDKKLLEAARAGQDDEVRILLKAGADVNAKDSTGWTPLHLAAPWGHPEIVEVLLKAGADVNAKDFQGWTPLHLAAAAGHLEIVEVLLKAGADVNAKDVYGWTPLHIAAASGHLEIVEVLLKAGADVNAKDWLGWTPLHLAASHGHLEIVEVLLKAGADVNAQDKSGKTPADLAARAGHQDIAEVLQKAA ... 0.00087

# get_value(readout='koff', item= α-CD3 DARPin-blocker (SEQ ID NO: 2) (designed binder) DLGKKLLQAARAGQLDEVRELLKAGADVNAKDAKGLTPLHLAAYHGHLEIVEVLLKAGADVNAKDVYGWTPLHIAAASGHLEIVEVLLKAGADVNAKDWLGWTPLHLAASHGHLEIVEVLLKAGADVNAQDKSGKTPADLAARAGHQDIAEVLQKAA )
8.92e-05
